assayInfo: qHTS Assay for Lipid Storage Modulators in Drosophila S3 Cells
runConditions: BODIPY lipid droplet fluorescence, 18-24 h, cells fed with added oleic acid; series mostly up to 46.1 µM
Among all 320,000 compounds or so, about 2,100 (0.66%) were called active. Roughly 53% stayed inconclusive and do not appear here. The call rests on the fitted dose curve; in most records, active means well fitted inhibition curve with a large enough effect in the signal ratio, with a control signal flat (not every such curve was filed as active); inconclusive means small, poorly fitted or top-dose-only effect, or effect the other way, or a change in a side signal; inactive means flat fitted curve, though single readings scatter; the % refers to the signal ratio. Shown is part of a subset that was picked to be rich in actives.
Outcomes: active, inactive

compound=COc1ccc(S(=O)(=O)N(C)CC(=O)NCc2ccc3c(c2)OCO3)cc1 discretelabel=active
compound=Nc1nc2ccc(Oc3ccccc3)cc2s1 discretelabel=inactive
compound=COc1ccc(S(=O)(=O)N(C)CC(=O)Nc2ccc3c(c2)OCO3)cc1 discretelabel=inactive
compound=COc1cc(Cl)nn(-c2ccccc2)c1=O discretelabel=inactive
compound=CCc1cccc(OCC(=O)Nc2ccccc2N2CCCC2)c1 discretelabel=inactive
compound="O=C(C1CC(=O)N(c2ccc(Cl)cc2)C1)N1CCC(c2nc3ccccc3[nH]2)CC1 (stereo unspecified)" discretelabel=inactive
compound=CCOc1ccc(C(=O)NNC(=O)c2cc(S(=O)(=O)N3CCOCC3)ccc2Cl)cc1 discretelabel=active
compound=CCOc1ccc(CC(C(=O)NN)C(=O)NN)cc1CN(C)C discretelabel=active
compound=Cc1cc(-c2csc(N)n2)c(C)n1CCc1ccccc1 discretelabel=inactive
compound=O=C(CN(C(=O)c1csnn1)c1cccc(F)c1)NCc1ccc2c(c1)OCO2 discretelabel=inactive
compound=O=C(CN(C(=O)c1csnn1)c1ccc(Cl)cc1)NCc1ccc2c(c1)OCO2 discretelabel=inactive
